The values you see were collected from patent US20030017565A1.

# assay notes: leaching of Japan cedar blocks, liquid treatment agent stored 2 weeks (Example 21)
# Assay type: physicochemical
# condition description: liquid agent (6 g powder in 12 ml) stored airtight 2 weeks, diluted 10-fold, Japan cedar
Each item that follows carries a reported Elution Rate (%) LSA.

compound string	Elution Rate (%) LSA
Nc1ccccc1N	2.1
O=C(OC[C@H]1O[C@@H](OC(=O)c2cc(O)c(O)c(OC(=O)c3cc(O)c(O)c(O)c3)c2)[C@H](OC(=O)c2cc(O)c(O)c(OC(=O)c3cc(O)c(O)c(O)c3)c2)[C@@H](OC(=O)c2cc(O)c(O)c(OC(=O)c3cc(O)c(O)c(O)c3)c2)[C@@H]1OC(=O)c1cc(O)c(O)c(OC(=O)c2cc(O)c(O)c(O)c2)c1)c1cc(O)c(O)c(OC(=O)c2cc(O)c(O)c(O)c2)c1	3.7
OB(O)O	0.6
CC(C)c1cccc(=O)c(O)c1	0.4

====

Each item that follows carries a reported Elution Rate (%) Chemical Agent.
# assay notes: leaching of Japan cedar blocks, powdery treatment agent stored 2 weeks (Example 21)
# Format: physicochemical
# condition description: powdery agent stored 2 weeks, 5 g in 100 ml; species as bracketed (Copper, Zinc, Nickel, Boron, H = hinokitiol), else the agent named

compound string	Elution Rate (%) Chemical Agent
Nc1ccccc1N	0.4
OB(O)O	18.1
CC(C)c1cccc(=O)c(O)c1	3.0
O=C(OC[C@H]1O[C@@H](OC(=O)c2cc(O)c(O)c(OC(=O)c3cc(O)c(O)c(O)c3)c2)[C@H](OC(=O)c2cc(O)c(O)c(OC(=O)c3cc(O)c(O)c(O)c3)c2)[C@@H](OC(=O)c2cc(O)c(O)c(OC(=O)c3cc(O)c(O)c(O)c3)c2)[C@@H]1OC(=O)c1cc(O)c(O)c(OC(=O)c2cc(O)c(O)c(O)c2)c1)c1cc(O)c(O)c(OC(=O)c2cc(O)c(O)c(O)c2)c1	4.2
